All values here come from PubChem BioAssay (NCI).

Tested on: OVCAR-8 ovarian
Protocol Details: NCI tumour cell line growth inhibition, 48 h
Below is a list of entries, each paired with its recorded GI50 value.

[[record]]
compound = "COc1cc2c(cc1OCCCN1CCN(c3ncnc4ccccc34)CC1)N=CC1CCCN1C2=O (stereo not drawn)"
measurement = "0.043 µM"

[[record]]
compound = "C[C@@H]1OCC2(CCN(c3cnc(Sc4ccnc(N)c4Cl)c(N)n3)CC2)[C@@H]1N"
measurement = "> 89.5 µM"

[[record]]
compound = "Nc1nc(-c2ccccc2)cc(-c2ccc(Cl)cc2)c1-c1nc2ccccc2o1"
measurement = "18.7 µM"

[[record]]
compound = "CC(CN)[C@@H]1CC[C@]2(CO)CC[C@]3(C)[C@H](CC[C@@H]4[C@@]5(C)CCC(N)C(C)(C)[C@@H]5CC[C@]43C)[C@@H]12 (stereo partly drawn)"
measurement = "1.92 µM"

[[record]]
compound = "Fc1cccc(-c2[nH]nc3nc(Nc4cccnc4)sc23)c1"
measurement = "15.7 µM"


Task: GET /values?readout=GI50&item= C/C(=C\c1ccn(-c2ccc(N)cc2F)n1)[C@@H]1C[C@@H]2O[C@]2(C)CCC[C@H](C)[C@H](O)[C@@H](C)C(=O)C(C)(C)[C@@H](O)CC(=O)O1
Output: 0.0408 µM

Task: GET /values?readout=GI50&item= C[CH2][Sn]([CH2]C)([O]C(=O)c1ccc(F)cc1)[O][Sn]([CH2]C)([CH2]C)[O]C(=O)c1ccc(F)cc1
Output: > 100 µM

Task: GET /values?readout=GI50&item= CC(C)(C)c1cc(-c2nc3c(F)c(F)c(F)c(F)c3[nH]2)cc(C(C)(C)C)c1O
Output: > 100 µM
